Ref: PubChem BioAssay (NCI)

# Test details: NCI Yeast Anticancer Drug Screen. Data for the rad50 strain (AID 155);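 also: 0% = growth of vehicle-only cultures of the same strain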
# Condition description: S. cerevisiae rad50 strain growth inhibition; at 50.0 µM
Compounds without any hit were thinned out: in the full panel of roughly 79,000, 15% have a hit. The source made the active and inactive calls. Rule as the data show it: active = growth inhibition above about 70%; inactive = the rest.
Write down one outcome, taken from active, inactive

>  <Molecule>
CC1=CC(=O)/C(=C\c2ccc3c(c2)OCO3)C(C)(C)C1

>  <Assigned label>
inactive

$$$$

Hello, I am checking results. What call was entered for CCN(CC)c1ccc(/C=C\c2c(C)cnc3ccccc23)cc1 ?
inactive

Hello, I am checking results. What call was entered for CN(C)C(=O)C1CCC(CC2CCCCC2)CC1 (centres undefined) ?
active

Hello, I am checking results. What call was entered for CCCCCCCOCC(=O)OC ?
inactive

Hello, I am checking results. What call was entered for Nc1nc(-c2ccc(F)cc2)cc(-c2cc(-c3ccc(F)cc3)nc(N)n2)n1 ?
inactive

###

Reported growth inhibition values follow for various compounds
# Test details: NCI Yeast Anticancer Drug Screen. Data for the sgs1 mgt1 strain (AID 161);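 also: 0% = growth of cultures given vehicle only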
# Condition description: S. cerevisiae sgs1 mgt1 strain, at 50.0 µM, hits give high values
# Procedure: Growth inhibition of yeast strains with defined genetic alterations is measured as a screen for potential anti-cancer activity. Selected strains with alterations in DNA damage repair or cell cycle control were exposed to compounds and growth inhibition was measured relative to vehicle treated controls. The strain used in this assay is sgs1 mgt1
Compounds without any hit were thinned out: in the full panel of roughly 79,000, 15% have a hit. Where a SMILES comes first, the peptide text is derived from it. [ ]: non-standard residue; d: D form. ξ: configuration not given here. ξH = NC(Cc1c[nH]cn1)C(=O)O
Could you give me the number in %? Just the number is fine.

>  <Compound>
CN(NC(=O)c1ccccc1)C(=O)c1ccccc1

>  <growth inhibition [%]>
11.6

$$$$
>  <Compound>
O=C(/C=N/O)Nc1ccccc1

>  <growth inhibition [%]>
-0.15

$$$$
>  <Compound>
CC1(C(=O)O)CCCCCCC1O (centres undefined)

>  <growth inhibition [%]>
-2.55

$$$$
>  <Compound>
NC(=O)c1ccc(Cl)c([N+](=O)[O-])c1

>  <growth inhibition [%]>
-7.3

$$$$
>  <Compound>
CCNc1nc2c(=O)n(C)c(=O)n(C)c2s1

>  <growth inhibition [%]>
-4.05

$$$$
>  <Compound>
NCC(=O)NC(Cc1cnc[nH]1)C(=O)NCC(=O)O (centres undefined) (H-Gly-[ξH]-Gly-OH)

>  <growth inhibition [%]>
-0.2

$$$$
>  <Compound>
COc1cc(C2OCCO2)ccc1O

>  <growth inhibition [%]>
-0.35

$$$$
>  <Compound>
N=C(N)SCCC(=O)CCSC(=N)N

>  <growth inhibition [%]>
33.6

$$$$

Given the compound O=S(=O)(OCC1CC2CCC1CC2)c1ccc(Br)cc1 (centres undefined) , write its reported growth inhibition.
9.35

Given the compound CSc1nc(C)cc(N(C)c2ccccc2)n1 , write its reported growth inhibition.
8.85

Given the compound CN=C(NC)C(c1ccccc1)c1ccccc1 , write its reported growth inhibition.
-5.7

Given the compound CCCC1c2c(ccc3ccccc23)Oc2ccc3ccccc3c21 , write its reported growth inhibition.
-19.6

Given the compound Cc1csc2nc(-c3ccco3)nn12 , write its reported growth inhibition.
4.55

Given the compound CCCOC(=O)c1c(Cl)c(Cl)c(Cl)c(Cl)c1C(=O)OCCC , write its reported growth inhibition.
4.8
